assay: soluble fraction after stress (log2 fold change); higher = more stays soluble; pooled small domains, quantitative proteomics; conditions: stress: 50 degC
Range-based classes on measured soluble fraction (log2): low bracket (below -0.4), middle bracket (-0.4 to below 0.05), high bracket (0.05 or more)

Reference set (10 entries):
HMRDDAIQQGREIVERELHRLDLAYTTLTDVLAKLEYEKLDDLYAAVGFGIRSPHSVAAAALQVERDKA :: low bracket
HMPRRSYLDARKKLLGMLNSPDFNSGDQIPAERELSEVLGISRVTVRKIITELIDEGVLERRGNQGTWLVD :: middle bracket
HMQRYFINEPVPEDQRLVLPKDIAHHLVDVLRAEQNDELEVALNDQKVYLARLISLNPATVELQSDLG :: high bracket
HMNNVDIMGRMVYDDQHREVINFGKYKGVLVTEVLKKDPGYFSWIQQGDFPSDMKRIMMAIKLRM :: low bracket
HMNLSAREWTSADGSRTFQGELTGFQDGKVKVRRSDGKSLVFAIELLSESDQQFIKTNQLVIAKKDED :: high bracket
HMSTEAFLGTEGEVVLPLLPDGLGKIRLHVADQDVELPARTGGEPIQIRERVVVVRFRDGIAEVEPAP :: high bracket
HMANSLLVTAQAGGQKLFNFLKRSLHAENNEIHRWIRTGQVRINKKRTKAFDIVHENDEIRIPPFALNR :: middle bracket
HMELLSGTVEKVLTSGVLVKLPGGAIGFIPNSEMGTPRGTNHGKMFPAGTPLQVMVVEVNQDRGRITLSR :: low bracket
HMSETLESYTTRLKQLEEIADSFQGVDKTFAIQAGREIRVMVVPEQISDDDMILLARDISNQIEENLDY :: middle bracket
HMKSIRIPFILTEGPNSQKITIDIDSDEEFRIGDVFDEDDKLWSINQILISGDRKAKMAIASEVTSISALR :: low bracket

Query: State the band of `HMSGALDTVVGIRMLKLLSTPIEKSKAFQVGIINKDGKKLRDPTSGERQHYTFLNRFVFKVQYALMRS`
Reply: middle bracket

Query: State the band of `HMIEESTVPDLKGKSQEDAIKLLEDANLKYQIVEEESKKIEAGYVISQETDANKKVNAGDTVIIHVST`
Reply: high bracket

Query: State the band of `HMNETNKMPNLVNQTDSSAIAQLNAMELGLKITTKEESSETVLAGYVIRTEPAADTELTKNQAVTVYVS`
Reply: middle bracket
